molecular target: Histone deacetylase 1 (Homo sapiens); test: Inhibition of HDAC1 (unknown origin) by fluorescence based assay
Sequence (Q13547 whole entry): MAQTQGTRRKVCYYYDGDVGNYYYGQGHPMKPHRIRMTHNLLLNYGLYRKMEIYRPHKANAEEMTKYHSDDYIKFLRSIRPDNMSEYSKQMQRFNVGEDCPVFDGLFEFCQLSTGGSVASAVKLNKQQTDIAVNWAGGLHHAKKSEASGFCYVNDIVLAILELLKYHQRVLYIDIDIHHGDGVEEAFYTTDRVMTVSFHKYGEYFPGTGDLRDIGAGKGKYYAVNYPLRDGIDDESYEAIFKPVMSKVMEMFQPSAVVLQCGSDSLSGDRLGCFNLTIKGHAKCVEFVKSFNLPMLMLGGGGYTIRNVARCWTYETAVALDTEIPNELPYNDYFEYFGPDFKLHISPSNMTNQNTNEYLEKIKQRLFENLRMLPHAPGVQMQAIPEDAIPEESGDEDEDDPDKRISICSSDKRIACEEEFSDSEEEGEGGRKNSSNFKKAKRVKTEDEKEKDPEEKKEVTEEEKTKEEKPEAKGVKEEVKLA
observation-type: IC50 (nM)
Reply with just the number (in nM).

Enquiry: Report measured IC50; entry is Cc1sc2c(c1C)C(c1ccc(Cl)cc1)=N[C@@H](CC(=O)Nc1ccc(C(=O)Nc3ccccc3[N+](=O)[O-])cc1)c1nnc(C)n1-2
Return: 290

====

molecular target: Bromodomain-containing protein 4 (Homo sapiens); test: Inhibition of BRD4 BD1 (unknown origin) incubated for 15 mins by TR-FRET analysis
observation-type: pIC50
# pIC50: negative log10 of molar concentration; output just the value

Enquiry: Respond only with pIC50 recorded for Cc1sc2c(c1C)C(c1ccc(Cl)cc1)=N[C@@H](CC(=O)Nc1ccc(C(=O)Nc3ccccc3[N+](=O)[O-])cc1)c1nnc(C)n1-2
Return: 6.14
